System: OVCAR-8 ovarian
PROTOCOL DESCRIPTION: NCI-60 one-dose screen, 48 h (100 = growth as untreated, 0 = no growth, -100 = all killed)
EXPERIMENTAL CONDITIONS: 10 µM unless noted
Protocol: Growth inhibition of the OVCAR-8 human tumor cell line is measured as a screen for anti-cancer activity. Cells are grown in 96 well plates and exposed to the test compound for 48 hours. Compounds are tested at a single concentration, which is 10^-5 M for most compounds. The reported endpoint is percent growth (GI% or GIPRCNT), where numbers from 0 - 100% represent growth inhibition, and numbers from -100% - 0 represent cell death. For example, a value of 40 represents 60% growth inhibition. […]
Compounds without any hit were thinned out: in the full panel of roughly 83,000, 20% have a hit.
Entries are grouped by growth into these classes: lower range: < 30%; middle range: ≥ 30% and < 90%; upper range: ≥ 90%

Answered cases to consult:
COMPOUND	TARGET OR TEST SYSTEM	LABEL CLASS
C=CCN1C(=O)/C(=c2\sc3n(c2=O)C2C(NN=3)N(CC)C(=O)N2CC)c2ccccc21 (centres undefined)	OVCAR-8 ovarian	lower range
C=C1C(=O)O[C@H]2[C@H]1CC/C(COC(=O)NCc1c[nH]c3ccc(OC)cc13)=C\CC[C@@]1(C)O[C@@H]21	OVCAR-8 ovarian	lower range
CCN1C(=O)/C(=C/N2N=C(c3ccc(Cl)cc3)CC2c2ccc(OC)cc2)SC1=S (centres undefined)	OVCAR-8 ovarian	upper range
COC(=O)OC1C(O[C@H]2C[C@H]3[C@@H]4CC=C5C[C@@H](O)CC[C@]5(C)[C@H]4CC[C@]3(C)[C@H]2[C@H](C)C(=O)CCC(C)C)OCC(O)C1OC1OCC(O)C(O)C1OC(=O)c1ccc(OC)cc1 (some centres undefined)	OVCAR-8 ovarian	lower range

Record CCOC(OCC)c1cnc2nc(NC(C)=O)[nH]c(=O)c2n1 — which class?
upper range

Record O=C1/C(=C/c2cc(F)cc(F)c2)Cc2cc(F)cc(F)c21 — which class?
upper range

Record COc1cc(C2CC(c3ccc(Cl)cc3)=NN2C=O)ccc1Oc1ccnc2cc(Cl)ccc12 (centres undefined) — which class?
middle range
